B1: TPPP (parent)
chain: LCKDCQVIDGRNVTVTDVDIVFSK

# Variants of: B1
# assay_summary: protein stability index of a GFP-peptide fusion (GPS, HEK-293T) (PSI 1-6); higher = more stable;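 further: lentivirally expressed fusions sorted by FACS into six bins by GFP to DsRed ratio, PSI derived from sequencing read proportions per bin multiplied by bin number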
# cond: c terminus: a fixed tail appended
test_readout: protein stability index

C2F	2.48
G10P	2.63
F22Q	3.59
D17A	2.33
I20S	2.55

### Prompt Look at this variant and give its reported protein stability index. "V15G"
### Response 2.65

### Prompt Data request, read-out protein stability index, for "C5R"
### Response 3.38

### Prompt Fill in: protein stability index of "L1S" is ___
### Response 2.91

### Prompt Reported protein stability index, variant "Q6D" : ____
### Response 2.69

### Prompt Recorded protein stability index of "V13L" , please.
### Response 2.48

### Prompt Fill blank: measured protein stability index of the variant "V7C" is ____.
### Response 2.4
